Test system: SK-MEL-5
TEST PROTOCOL: Cytotoxicity against human SK-MEL-5 cells assessed as inhibition of cell growth incubated for 24 hrs by resazurin staining based analysis
Type: functional
CONDITION DESCRIPTION: SK-MEL-5, 24 h
RECORDED METRIC: IC50 (µM)
# output: bare number, implied unit µM

query: Form field - read-out: IC50; system: SK-MEL-5; submitted item: C#C[C@]1(O)CC[C@H]2[C@@H]3CC=C4c5sc(-c6ccc7c(c6)OCO7)nc5CC[C@]4(C)[C@H]3CC[C@@]21C
result: 4.9

query: Form field - read-out: IC50; system: SK-MEL-5; submitted item: C#C[C@]1(O)CC[C@H]2[C@@H]3CC=C4c5sc(Nc6ncccn6)nc5CC[C@]4(C)[C@H]3CC[C@@]21C
result: 4.9

query: Form field - read-out: IC50; system: SK-MEL-5; submitted item: C#C[C@]1(O)CC[C@H]2[C@@H]3CC=C4c5sc(Nc6ccc(F)cn6)nc5CC[C@]4(C)[C@H]3CC[C@@]21C
result: 2.8

query: Form field - read-out: IC50; system: SK-MEL-5; submitted item: C#C[C@]1(O)CC[C@H]2[C@@H]3CC=C4c5sc(Nc6cc(OC)ccc6Cl)nc5CC[C@]4(C)[C@H]3CC[C@@]21C
result: 4.8

query: Form field - read-out: IC50; system: SK-MEL-5; submitted item: C#C[C@]1(O)CC[C@H]2[C@@H]3CC=C4c5sc(Nc6ccc(OC)cc6OC)nc5CC[C@]4(C)[C@H]3CC[C@@]21C
result: 3

query: Form field - read-out: IC50; system: SK-MEL-5; submitted item: C#C[C@]1(O)CC[C@H]2[C@@H]3CC=C4c5sc(Nc6ccc(Cl)cn6)nc5CC[C@]4(C)[C@H]3CC[C@@]21C
result: 4.8

query: Form field - read-out: IC50; system: SK-MEL-5; submitted item: C#C[C@]1(O)CC[C@H]2[C@@H]3CC=C4c5sc(-c6ccc(O)c(O)c6)nc5CC[C@]4(C)[C@H]3CC[C@@]21C
result: 3.7

query: Form field - read-out: IC50; system: SK-MEL-5; submitted item: C#C[C@]1(O)CC[C@H]2[C@@H]3CC=C4c5sc(Nc6cc(OC)ccc6OC)nc5CC[C@]4(C)[C@H]3CC[C@@]21C
result: 3.5

query: Form field - read-out: IC50; system: SK-MEL-5; submitted item: C#C[C@]1(O)CC[C@H]2[C@@H]3CC=C4c5sc(Nc6cccc(C)n6)nc5CC[C@]4(C)[C@H]3CC[C@@]21C
result: 3.9

query: Form field - read-out: IC50; system: SK-MEL-5; submitted item: Cc1ccc(Nc2nc3c(s2)C2=CC[C@@H]4[C@H](CC[C@]5(C)C(=O)CC[C@@H]45)[C@@]2(C)CC3)cc1
result: 7.3

query: Form field - read-out: IC50; system: SK-MEL-5; submitted item: C#C[C@]1(O)CC[C@H]2[C@@H]3CC=C4c5sc(Nc6ccccc6)nc5CC[C@]4(C)[C@H]3CC[C@@]21C
result: 2.4

query: Form field - read-out: IC50; system: SK-MEL-5; submitted item: C#C[C@]1(O)CC[C@H]2[C@@H]3CC=C4c5sc(-c6ccc(O)cc6)nc5CC[C@]4(C)[C@H]3CC[C@@]21C
result: 3.2

query: Form field - read-out: IC50; system: SK-MEL-5; submitted item: C#C[C@]1(O)CC[C@H]2[C@@H]3CC=C4c5sc(Nc6ccncc6)nc5CC[C@]4(C)[C@H]3CC[C@@]21C
result: 2.9

query: Form field - read-out: IC50; system: SK-MEL-5; submitted item: C[C@]12CCc3nc(Nc4ncccn4)sc3C1=CC[C@@H]1[C@@H]2CC[C@]2(C)C(=O)CC[C@@H]12
result: 1.3

query: Form field - read-out: IC50; system: SK-MEL-5; submitted item: C#C[C@]1(O)CC[C@H]2[C@@H]3CC=C4c5sc(N6CCN(C)CC6)nc5CC[C@]4(C)[C@H]3CC[C@@]21C
result: 2.6

query: Form field - read-out: IC50; system: SK-MEL-5; submitted item: C[C@]12CCc3nc(NCCc4ccccc4)sc3C1=CC[C@@H]1[C@@H]2CC[C@]2(C)C(=O)CC[C@@H]12
result: 5.2

###

Test system: SK-MEL-5
TEST PROTOCOL: Cytotoxicity against human SK-MEL-5 cells assessed as inhibition of cell growth incubated for 24 hrs by resazurin staining based analysis
Format: functional
CONDITION DESCRIPTION: SK-MEL-5, 24 h
Hi there, I'd appreciate the recorded pIC50 for every entry that follows.
Reminder that pIC50 means the negative base-10 logarithm of the concentration expressed in mol/L.

query: What measured pIC50 goes with C#C[C@]1(O)CC[C@H]2[C@@H]3CC=C4c5sc(Nc6ncccc6C)nc5CC[C@]4(C)[C@H]3CC[C@@]21C ?
result: 5.26

query: What measured pIC50 goes with C[C@]12CCc3nc(Nc4ccccc4)sc3C1=CC[C@@H]1[C@@H]2CC[C@]2(C)C(=O)CC[C@@H]12 ?
result: 4.97

query: What measured pIC50 goes with C#C[C@]1(O)CC[C@H]2[C@@H]3CC=C4c5sc(Nc6cc(C)cc(C)n6)nc5CC[C@]4(C)[C@H]3CC[C@@]21C ?
result: 5.60

query: What measured pIC50 goes with C#C[C@]1(O)CC[C@H]2[C@@H]3CC=C4c5sc(-c6cccc(F)c6)nc5CC[C@]4(C)[C@H]3CC[C@@]21C ?
result: 4.70

###

Test system: SK-MEL-5
TEST PROTOCOL: Cytotoxicity against human SK-MEL-5 cells assessed as inhibition of cell growth incubated for 24 hrs by resazurin staining based analysis
Format: functional
CONDITION DESCRIPTION: SK-MEL-5, 24 h
Hi there, I'd appreciate the recorded IC50 for every entry that follows.
# output: bare number, implied unit µM

query: What measured IC50 goes with C#C[C@]1(O)CC[C@H]2[C@@H]3CC=C4c5sc(Nc6ccc(C)cn6)nc5CC[C@]4(C)[C@H]3CC[C@@]21C ?
result: 3.7

query: What measured IC50 goes with C#C[C@]1(O)CC[C@H]2[C@@H]3CC=C4c5sc(Nc6cccc(Cl)n6)nc5CC[C@]4(C)[C@H]3CC[C@@]21C ?
result: 2.7

query: What measured IC50 goes with C#C[C@]1(O)CC[C@H]2[C@@H]3CC=C4c5sc(Nc6ccc(F)cc6F)nc5CC[C@]4(C)[C@H]3CC[C@@]21C ?
result: 1.9

###

Test system: SK-MEL-5
TEST PROTOCOL: Cytotoxicity against human SK-MEL-5 cells assessed as inhibition of cell growth incubated for 24 hrs by resazurin staining based analysis
Type: functional
CONDITION DESCRIPTION: SK-MEL-5, 24 h
Hi there, I'd appreciate the recorded pIC50 for every entry that follows.
Reminder that pIC50 means the negative base-10 logarithm of the concentration expressed in mol/L.

query: What measured pIC50 goes with C#C[C@]1(O)CC[C@H]2[C@@H]3CC=C4c5sc(-c6cccc(O)c6)nc5CC[C@]4(C)[C@H]3CC[C@@]21C ?
result: 5.46

query: What measured pIC50 goes with C#C[C@]1(O)CC[C@H]2[C@@H]3CC=C4c5sc(Nc6ccccn6)nc5CC[C@]4(C)[C@H]3CC[C@@]21C ?
result: 5.59

query: What measured pIC50 goes with C#C[C@]1(O)CC[C@H]2[C@@H]3CC=C4c5sc(Nc6ccc(C)c(Cl)c6)nc5CC[C@]4(C)[C@H]3CC[C@@]21C ?
result: 5.37

query: What measured pIC50 goes with C[C@]12CCc3nc(Nc4cccc(F)c4)sc3C1=CC[C@@H]1[C@@H]2CC[C@]2(C)C(=O)CC[C@@H]12 ?
result: 5.17

query: What measured pIC50 goes with C[C@]12CCc3nc(Nc4ccc(F)cc4)sc3C1=CC[C@@H]1[C@@H]2CC[C@]2(C)C(=O)CC[C@@H]12 ?
result: 5.19

query: What measured pIC50 goes with C#C[C@]1(O)CC[C@H]2[C@@H]3CC=C4c5sc(Nc6cc(Cl)ccn6)nc5CC[C@]4(C)[C@H]3CC[C@@]21C ?
result: 5.44

###

Test system: SK-MEL-5
TEST PROTOCOL: Cytotoxicity against human SK-MEL-5 cells assessed as inhibition of cell growth incubated for 24 hrs by resazurin staining based analysis
Format: functional
CONDITION DESCRIPTION: SK-MEL-5, 24 h
Hi there, I'd appreciate the recorded IC50 for every entry that follows.
# output: bare number, implied unit µM

query: What measured IC50 goes with Cc1ccc(Nc2nc3c(s2)C2=CC[C@@H]4[C@H](CC[C@]5(C)C(=O)CC[C@@H]45)[C@@]2(C)CC3)c(C)c1 ?
result: 6.6

query: What measured IC50 goes with C[C@]12CCc3nc(Nc4ccccn4)sc3C1=CC[C@@H]1[C@@H]2CC[C@]2(C)C(=O)CC[C@@H]12 ?
result: 7.1
